experimental.protocol: Toxicokinetics after transdermal application of gel containing 2% MDMH or DMH (plasma, non-compartmental analysis)
Type: in vivo
settings: male, Sprague-Dawley, rat, plasma, topical; DMH, TD application of 2% DMH gel (10.7 mg/kg) vs IV, rats, n = 5; read-out: Absolute bioavailability

[
  {
    "compound": "CC1(C)NC(=O)NC1=O [DMH, 5,5-dimethylhydantoin]",
    "bioavailability, %": 101
  }
]

====

experimental.protocol: Toxicokinetics after intravenous injection of MDMH or DMH (plasma, LC-MS/MS, non-compartmental analysis)
Assay type: in vivo
settings: male, Sprague-Dawley, rat, plasma, iv, 10 mg/kg, DMH after IV injection of DMH 10 mg/kg, rats; read-out: t1/2 (hour equivalent)

[
  {
    "molecule": "CC1(C)NC(=O)NC1=O [DMH, 5,5-dimethylhydantoin]",
    "unit.info": "h",
    "half-life": 3.02
  }
]

====

experimental.protocol: Population toxicokinetic modeling of MDMH and DMH plasma data (IV and TD)
Format: in vivo
settings: male, Sprague-Dawley, rat, plasma, other: intravenous and transdermal data pooled; population estimate, Mean (BSV), rats; read-out: Clearance for MDMH (CLMDMH) (converted)

[
  {
    "compound": "CC1(C)C(=O)NC(=O)N1CO [MDMH, 1-(Hydroxymethyl)-5,5-dimethylhydantoin]",
    "clearance, mL/min": 2460
  }
]

====

experimental.protocol: Toxicokinetics after transdermal application of gel containing 2% MDMH or DMH (plasma, non-compartmental analysis)
Format: in vivo
settings: male, Sprague-Dawley, rat, topical or ocular; DMH in plasma after TD application of gel containing 2% DMH (10.7 mg/kg), rats, n = 5
Description: An API 4000 LC-MS/MS system (Applied Biosystems/MDS Sciex, Foster City, CA, USA) coupled with an Agilent 1100 HPLC (Agilent Technologies, Santa Clara, CA, USA) was used for determination of MDMH and DMH in rat plasma. […] The toxicokinetic parameters were calculated by standard non-compartmental analysis using the non-linear least squares regression program Phoenix™ WinNonlin® 6.1 (Pharsight, Cary, NC, USA). […]

[
  {
    "mol.smiles": "CC1(C)NC(=O)NC1=O",
    "unit.info": "ng·h/mL",
    "AUC(0-t)": 40500
  }
]

====

experimental.protocol: Toxicokinetics after intravenous injection of MDMH or DMH (plasma, LC-MS/MS, non-compartmental analysis)
Type: in vivo
settings: male, Sprague-Dawley, rat; DMH in plasma after IV injection of DMH 10 mg/kg, rats, n = 5; read-out: AUCinfinity
recorded.metric: AUC(0-inf) (ng·h/mL)

[
  {
    "mol.smiles": "CC1(C)NC(=O)NC1=O",
    "reading": 55000
  }
]

====

experimental.protocol: Toxicokinetics after intravenous injection of MDMH or DMH (plasma, LC-MS/MS, non-compartmental analysis)
Type: in vivo
settings: male, Sprague-Dawley, rat, plasma; DMH after IV injection of DMH 10 mg/kg, rats, n = 5

[
  {
    "mol.smiles": "CC1(C)NC(=O)NC1=O",
    "unit.info": "mL/min/kg",
    "clearance": 4
  }
]

====

experimental.protocol: Population toxicokinetic modeling of MDMH and DMH plasma data (IV and TD)
Assay type: in vivo
settings: male, Sprague-Dawley, rat, plasma, other: intravenous and transdermal data pooled; population estimate, Mean (BSV), rats; read-out: Clearance for DMH (CLDMH) (converted)

[
  {
    "mol.smiles": "CC1(C)NC(=O)NC1=O",
    "unit.info": "mL/min",
    "clearance": 3.17
  }
]

====

experimental.protocol: Toxicokinetics after intravenous injection of MDMH or DMH (plasma, LC-MS/MS, non-compartmental analysis)
Type: in vivo
settings: male, Sprague-Dawley, rat, plasma; MDMH after IV injection of MDMH 50 mg/kg, rats, n = 5
recorded.metric: clearance (mL/min/kg)

[
  {
    "compound": "CC1(C)C(=O)NC(=O)N1CO [MDMH, 1-(Hydroxymethyl)-5,5-dimethylhydantoin]",
    "reading": 1570
  }
]

====

experimental.protocol: Toxicokinetics after intravenous injection of MDMH or DMH (plasma, LC-MS/MS, non-compartmental analysis)
Type: in vivo
settings: male, Sprague-Dawley, rat; DMH in plasma after IV injection of DMH 10 mg/kg, rats, n = 5

[
  {
    "mol.smiles": "CC1(C)NC(=O)NC1=O",
    "C0": "26900 ng/mL"
  }
]

====

experimental.protocol: Toxicokinetics after transdermal application of gel containing 2% MDMH or DMH (plasma, non-compartmental analysis)
Type: in vivo
settings: male, Sprague-Dawley, rat, plasma, topical or ocular; DMH, TD application of 2% DMH gel (10.7 mg/kg) vs IV, rats, n = 5; read-out: Absolute bioavailability
recorded.metric: bioavailability (%)

[
  {
    "mol.smiles": "CC1(C)NC(=O)NC1=O",
    "reading": 101
  }
]

====

experimental.protocol: Toxicokinetics after intravenous injection of MDMH or DMH (plasma, LC-MS/MS, non-compartmental analysis)
Assay type: in vivo
settings: male, Sprague-Dawley, rat; MDMH in plasma after IV injection of MDMH 50 mg/kg, rats, n = 5; read-out: AUCinfinity
recorded.metric: AUC(0-inf) (ng·h/mL)

[
  {
    "compound": "CC1(C)C(=O)NC(=O)N1CO [MDMH, 1-(Hydroxymethyl)-5,5-dimethylhydantoin]",
    "reading": 580
  }
]

====

experimental.protocol: Toxicokinetics after transdermal application of gel containing 2% MDMH or DMH (plasma, non-compartmental analysis)
Assay type: in vivo
settings: male, Sprague-Dawley, rat, topical or ocular; DMH in plasma after TD application of gel containing 2% DMH (10.7 mg/kg), rats, n = 5
recorded.metric: Tmax (h)

[
  {
    "mol.smiles": "CC1(C)NC(=O)NC1=O",
    "reading": 2
  }
]

====

experimental.protocol: Toxicokinetics after intravenous injection of MDMH or DMH (plasma, LC-MS/MS, non-compartmental analysis)
Format: in vivo
settings: male, Sprague-Dawley, rat, plasma, iv, 10 mg/kg, DMH in plasma after IV injection of DMH 10 mg/kg, rats, n = 5; read-out: t1/2

[
  {
    "molecule": "CC1(C)NC(=O)NC1=O [DMH, 5,5-dimethylhydantoin]",
    "half-life, h": 3.02
  }
]

====

experimental.protocol: Toxicokinetics after transdermal application of gel containing 2% MDMH or DMH (plasma, non-compartmental analysis)
Format: in vivo
settings: male, Sprague-Dawley, rat, topical or ocular; DMH in plasma after TD application of gel containing 2% DMH (10.7 mg/kg), rats, n = 5

[
  {
    "compound": "CC1(C)NC(=O)NC1=O [DMH, 5,5-dimethylhydantoin]",
    "Cmax / ng/mL": 6460
  }
]

====

experimental.protocol: Toxicokinetics after transdermal application of gel containing 2% MDMH or DMH (plasma, non-compartmental analysis)
Type: in vivo
settings: male, Sprague-Dawley, rat, topical or ocular; DMH in plasma after TD application of gel containing 2% DMH (10.7 mg/kg), rats, n = 5

[
  {
    "compound": "CC1(C)NC(=O)NC1=O [DMH, 5,5-dimethylhydantoin]",
    "unit.info": "h",
    "half-life": 5.36
  }
]

====

experimental.protocol: Population toxicokinetic modeling of MDMH and DMH plasma data (IV and TD)
Assay type: in vivo
settings: male, Sprague-Dawley, rat, plasma, other: intravenous and transdermal data pooled; population estimate, Mean (BSV), rats; read-out: Central volume of distribution for MDMH (Vc,MDMH)

[
  {
    "compound": "CC1(C)C(=O)NC(=O)N1CO [MDMH, 1-(Hydroxymethyl)-5,5-dimethylhydantoin]",
    "Vd": "1.18 L"
  }
]

====

experimental.protocol: Population toxicokinetic modeling of MDMH and DMH plasma data (IV and TD)
Assay type: in vivo
settings: male, Sprague-Dawley, rat, plasma, other: intravenous and transdermal data pooled; population estimate, Mean (BSV), rats; read-out: Central volume of distribution for DMH (Vc,DMH)

[
  {
    "molecule": "CC1(C)NC(=O)NC1=O [DMH, 5,5-dimethylhydantoin]",
    "Vd, L": 0.32
  }
]

====

experimental.protocol: Toxicokinetics after intravenous injection of MDMH or DMH (plasma, LC-MS/MS, non-compartmental analysis)
Format: in vivo
settings: male, Sprague-Dawley, rat; DMH in plasma after IV injection of DMH 10 mg/kg, rats, n = 5
recorded.metric: AUC(0-t) (ng·h/mL)

[
  {
    "compound": "CC1(C)NC(=O)NC1=O [DMH, 5,5-dimethylhydantoin]",
    "recorded.metric": "AUC(0-t)",
    "reading": 47100
  }
]

====

experimental.protocol: Toxicokinetics after transdermal application of gel containing 2% MDMH or DMH (plasma, non-compartmental analysis)
Format: in vivo
settings: male, Sprague-Dawley, rat, topical or ocular; DMH in plasma after TD application of gel containing 2% DMH (10.7 mg/kg), rats, n = 5; read-out: AUCinfinity
recorded.metric: AUC(0-inf) (µg·h/mL)

[
  {
    "mol.smiles": "CC1(C)NC(=O)NC1=O",
    "reading": 51.5
  }
]
